FYI, the data here is from patent US8288371B2.

Target protein (sequence): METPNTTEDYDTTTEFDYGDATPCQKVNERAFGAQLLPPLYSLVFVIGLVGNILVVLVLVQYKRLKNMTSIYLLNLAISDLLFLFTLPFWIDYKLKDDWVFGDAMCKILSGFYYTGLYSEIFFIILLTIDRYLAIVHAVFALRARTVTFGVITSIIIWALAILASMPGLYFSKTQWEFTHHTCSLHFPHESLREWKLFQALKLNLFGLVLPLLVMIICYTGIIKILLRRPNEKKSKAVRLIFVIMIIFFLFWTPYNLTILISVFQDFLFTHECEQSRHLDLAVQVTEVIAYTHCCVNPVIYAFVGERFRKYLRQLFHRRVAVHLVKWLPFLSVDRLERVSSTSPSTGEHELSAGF
Reported IC50 values follow for various molecules

Molecule: O=C(NCc1ccc(C(F)(F)F)cc1)N1CCC[C@@H]1c1nnc(C(F)(F)F)n1Cc1ccc(Cl)cc1 [Compound 249]
IC50: 500 to 5000 nM
--
Molecule: Cc1nnc([C@H]2CCCN2C(=O)Nc2ccc(S(N)(=O)=O)cc2Cl)n1Cc1ccc(Cl)cc1 [Compound 486]
IC50: < 50 nM
--
Molecule: CSc1ccc(NC(=O)N2CCC[C@@H]2c2ncnn2Cc2ccc(Cl)cc2)cc1 [Compound 67]
IC50: 50 to 500 nM
--
Molecule: O=C(NC1CCc2cc(C(F)(F)F)ccc21)N1CCC[C@@H]1c1ncnn1Cc1ccc(Cl)cc1 (some centres unmarked) [Compound 86]
IC50: 50 to 500 nM
--
Molecule: CC1(C)CC[C@@H](NC(=O)N2CCC[C@@H]2c2ncnn2Cc2ccc(Cl)cc2)c2ccccc21 [Compound 77]
IC50: 50 to 500 nM
--
Molecule: Cc1cc(Cl)cc(C)c1NC(=O)N1CCC[C@@H]1c1nncn1Cc1ccc(Cl)cc1 [Compound 106]
IC50: < 50 nM
--
Molecule: Cc1nnc([C@H]2CCCN2C(=O)Nc2ccc(OC(F)(F)F)cc2)n1Cc1ccc(Cl)cc1 [Compound 136]
IC50: < 50 nM
--
Molecule: Cc1nnc([C@H]2CCCN2C(=O)NC2CCCCCC2)n1Cc1ccc(Cl)cc1 [Compound 186]
IC50: 50 to 500 nM

====

pIC50: −log10 of the molar value.
What follows is a record of pIC50 for human CCR1 (Homo sapiens).

Compound: Cc1nnc([C@H]2CCCN2C(=O)Nc2ccc(C(C)C)cc2C(F)(F)F)n1Cc1ccc(Cl)cc1 [Compound 278]
pIC50: > 7.30
//
Compound: Cc1nnc([C@H]2CCCN2C(=O)Nc2cc(C(N)=O)ccc2Cl)n1Cc1ccc(Cl)cc1 [Compound 332]
pIC50: 6.30 to 7.30
//
Compound: COCc1nnc([C@H]2CCCN2C(=O)NCc2ccc(Cl)cc2Cl)n1Cc1ccc(Cl)cc1 [Compound 462]
pIC50: 6.30 to 7.30
//
Compound: Cc1nnc([C@H]2CCCN2C(=O)N[C@H]2CCOc3c(F)cc(F)cc32)n1Cc1ccc(Cl)cc1 [Compound 153]
pIC50: > 7.30
//
Compound: O=C(N[C@H]1CCc2ccccc2C1)N1CCC[C@@H]1c1ncnn1Cc1ccc(Cl)cc1 [Compound 56]
pIC50: > 7.30
//
Compound: O=C(Nc1ccc(C(F)(F)F)cc1Cl)N1CCC[C@@H]1c1ncnn1Cc1ccc(Cl)cc1 [Compound 70]
pIC50: 6.30 to 7.30
//
Compound: Cc1nnc([C@H]2CCCN2C(=O)N[C@@H](C)C(C)C)n1Cc1ccc(Cl)cc1 [Compound 343]
pIC50: 6.30 to 7.30
//
Compound: Cc1nnc([C@H]2CCCN2C(=O)N[C@H](C)c2nc3ccccc3o2)n1Cc1ccc(Cl)cc1 [Compound 513]
pIC50: > 7.30

====

Protein target, amino acids: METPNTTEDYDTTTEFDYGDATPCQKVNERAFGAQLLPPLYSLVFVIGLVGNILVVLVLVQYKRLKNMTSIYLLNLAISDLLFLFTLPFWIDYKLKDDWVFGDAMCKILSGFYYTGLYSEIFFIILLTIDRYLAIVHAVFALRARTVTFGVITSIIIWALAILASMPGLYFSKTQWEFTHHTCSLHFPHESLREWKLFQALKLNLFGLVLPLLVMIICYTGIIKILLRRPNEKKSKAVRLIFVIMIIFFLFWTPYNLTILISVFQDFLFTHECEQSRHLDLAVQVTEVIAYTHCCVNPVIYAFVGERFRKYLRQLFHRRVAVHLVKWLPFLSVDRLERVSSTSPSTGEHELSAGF
pIC50: −log10 of the molar value.
Below, each entry is listed with its recorded pIC50.

Compound: Cc1nnc(C2C3CC3CN2C(=O)N[C@H]2CCOc3cc(C(F)(F)F)ccc32)n1Cc1ccc(Cl)cc1 (stereo partly shown) [Compound 546]
pIC50: 6.30 to 7.30
//
Compound: Cc1oc(-c2ccccc2)cc1NC(=O)N1CCC[C@@H]1c1nccn1Cc1ccc(Cl)cc1 [Compound 31]
pIC50: > 7.30
//
Compound: Cc1nnc([C@H]2CCCN2C(=O)Nc2ccc(S(=O)(=O)O)cc2Cl)n1Cc1ccc(Cl)cc1 [Compound 456]
pIC50: 6.30 to 7.30
//
Compound: Cc1nnc([C@H]2CCCN2C(=O)N[C@H](C)c2ccc(Cl)cc2)n1Cc1ccc(Cl)cc1 [Compound 180]
pIC50: > 7.30

====

Target chain: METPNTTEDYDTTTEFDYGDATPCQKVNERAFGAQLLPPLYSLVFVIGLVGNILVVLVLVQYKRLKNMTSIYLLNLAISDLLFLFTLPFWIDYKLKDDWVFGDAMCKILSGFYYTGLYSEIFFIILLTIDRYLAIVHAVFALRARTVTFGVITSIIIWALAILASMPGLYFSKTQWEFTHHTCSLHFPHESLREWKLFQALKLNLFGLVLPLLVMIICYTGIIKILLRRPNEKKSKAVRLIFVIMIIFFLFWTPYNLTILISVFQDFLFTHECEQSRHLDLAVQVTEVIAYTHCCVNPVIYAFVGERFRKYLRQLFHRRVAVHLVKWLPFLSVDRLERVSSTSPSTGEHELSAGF
pIC50: −log10 of the molar value.
Listed below: pIC50 values for each entry.

Compound: Cc1nnc([C@H]2CCCN2C(=O)N[C@H]2COCc3c(F)cccc32)n1Cc1ccc(Cl)cc1 [Compound 138]
pIC50: 6.30 to 7.30
--
Compound: Cc1nnc([C@H]2C[C@@H](O)CN2C(=O)Cc2cccc(C(F)(F)F)c2)n1Cc1ccc(Cl)cc1 [Compound 502]
pIC50: 6.30 to 7.30
--
Compound: CNS(=O)(=O)c1ccc(NC(=O)N2CCC[C@@H]2c2nnc(C)n2Cc2ccc(Cl)cc2)c(Cl)c1 [Compound 452]
pIC50: > 7.30
--
Compound: O=C(NC1(c2ccc(C(F)(F)F)cc2)CC1)N1CCC[C@@H]1c1ncnn1Cc1ccc(Cl)cc1 [Compound 98]
pIC50: 6.30 to 7.30
--
Compound: Cc1nnc([C@H]2CCCN2C(=O)NCc2ccccc2)n1Cc1ccc(Cl)cc1 [Compound 224]
pIC50: 6.30 to 7.30
--
Compound: Cc1noc([C@H]2CCCN2C(=O)Nc2c(C)noc2C)c1Cc1ccc(Cl)cc1 [Compound 1]
pIC50: > 7.30
--
Compound: Cc1nnc([C@H]2CCCN2C(=O)C(C)c2cccc(Cl)c2)n1Cc1ccc(Cl)cc1 (some centres unmarked) [Compound 508]
pIC50: 6.30 to 7.30
--
Compound: Cc1nc(C(F)(F)F)ccc1CC(=O)N1CCC[C@@H]1c1nncn1Cc1ccc(Cl)cc1 [Compound 618]
pIC50: > 7.30

====

Target: human CCR1 (Homo sapiens, UniProt P32246)
Sequence (P32246 1-355): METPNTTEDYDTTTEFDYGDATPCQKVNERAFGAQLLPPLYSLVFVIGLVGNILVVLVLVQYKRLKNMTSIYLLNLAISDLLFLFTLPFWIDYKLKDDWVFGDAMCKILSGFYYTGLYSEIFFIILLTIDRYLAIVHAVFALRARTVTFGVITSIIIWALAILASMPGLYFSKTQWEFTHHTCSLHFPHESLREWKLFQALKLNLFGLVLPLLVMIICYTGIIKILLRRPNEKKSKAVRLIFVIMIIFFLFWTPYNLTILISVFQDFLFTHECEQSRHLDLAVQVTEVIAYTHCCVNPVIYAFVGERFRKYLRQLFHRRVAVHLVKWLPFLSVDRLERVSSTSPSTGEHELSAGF
Assay: CCR1 binding protocol (SPA, [125I]-MIP-1α displacement)
Conditions: cell membrane expressing human CCR1, 0.1 nM [125I]-MIP-1α, 4 hours at ambient temperature; read-out: Relative potency (IC50)
pIC50: −log10 of the molar value.

Molecule: Cc1nnc([C@H]2CCCN2C(=O)Nc2ccc3c(c2)OCC(=O)N3C)n1Cc1ccc(Cl)cc1
pIC50: 5.30 to 6.30
--
Molecule: Cc1nnc([C@H]2CCCN2C(=O)NC2(c3cccc(C(F)(F)F)c3)CC2)n1Cc1ccc(Cl)cc1
pIC50: > 7.30
--
Molecule: O=C(NCc1ccc(Cl)cc1Cl)N1CCC[C@@H]1c1nccn1Cc1ccc(Cl)cc1
pIC50: 6.30 to 7.30
--
Molecule: Cc1nnc([C@H]2CCCN2/C(=N/C#N)NCc2ccc(Cl)cc2Cl)n1Cc1ccc(Cl)cc1
pIC50: 6.30 to 7.30
--
Molecule: Cc1nnc([C@H]2CCCN2C(=O)NCc2ccc(Cl)cc2Cl)n1Cc1ccc(Cl)cc1
pIC50: > 7.30
--
Molecule: COC1C[C@H](c2nnc(C)n2Cc2ccc(Cl)cc2)N(C(=O)Nc2ccc(C(F)(F)F)nc2C)C1 (stereo partly shown)
pIC50: 6.30 to 7.30
--
Molecule: Cc1cc(C(F)(F)F)cc(C)c1NC(=O)N1CCC[C@@H]1c1nnc(C)n1Cc1ccc(Cl)cc1
pIC50: > 7.30
--
Molecule: Cc1nnc([C@H]2CCCN2C(=O)Nc2cc(C(=O)N(C)C)ccc2Cl)n1Cc1ccc(Cl)cc1
pIC50: > 7.30
--
Molecule: Cc1nnc([C@H]2CCCN2C(=O)N[C@H](C)c2ccc(C(F)(F)F)nc2)n1Cc1ccc(Cl)cc1
pIC50: > 7.30
--
Molecule: O=C(N[C@H]1CCOc2cc(C(F)(F)F)ccc21)N1CCC[C@@H]1c1nnnn1Cc1ccc(Cl)cc1
pIC50: > 7.30
--
Molecule: Cc1nc(Cl)ccc1NC(=O)N1CCC[C@@H]1c1nnc(C)n1Cc1ccc(Cl)cc1
pIC50: > 7.30
--
Molecule: Cc1nnc([C@H]2CCCN2C(=O)NC2(c3ccccc3F)CC2)n1Cc1ccc(Cl)cc1
pIC50: > 7.30
--
Molecule: C[C@H](NC(=O)N1CCC[C@@H]1c1nnc(CO)n1Cc1ccc(Cl)cc1)c1ccc(Cl)cc1
pIC50: > 7.30
--
Molecule: CC[C@H](NC(=O)N1CCC[C@@H]1c1nnc(C)n1Cc1ccc(Cl)cc1)c1cc2cc(C(F)(F)F)ccc2o1
pIC50: > 7.30
--
Molecule: CC[C@H](NC(=O)N1CCC[C@@H]1c1nnc(C)n1Cc1ccc(Br)cc1)c1ccc(C(F)(F)F)nc1
pIC50: > 7.30
--
Molecule: CC1(C)CC(NC(=O)N2CCC[C@@H]2c2ncnn2Cc2ccc(Cl)cc2)c2ccccc2O1 (stereo partly shown)
pIC50: 6.30 to 7.30
--
Molecule: Cc1nnc([C@H]2CCCN2/C(=N\C#N)N[C@H]2CCOc3cc(C(F)(F)F)ccc32)n1Cc1ccc(Cl)cc1
pIC50: 6.30 to 7.30
--
Molecule: Cc1nnc([C@H]2CCCN2C(=O)Nc2cccnc2)n1Cc1ccc(Cl)cc1
pIC50: 5.30 to 6.30
--
Molecule: Cc1nnc([C@H]2CCCN2C(=O)N[C@H]2CCOc3ccc(F)cc32)n1Cc1ccc(Cl)cc1
pIC50: 6.30 to 7.30
--
Molecule: Cc1nnc([C@H]2CCCN2C(=O)NCC2CCN(S(C)(=O)=O)C2)n1Cc1ccc(Cl)cc1 (stereo partly shown)
pIC50: 6.30 to 7.30
--
Molecule: Cc1cc(C(F)(F)F)cc(C)c1NC(=O)N1CCC[C@@H]1c1nccn1Cc1ccc(Cl)cc1
pIC50: > 7.30
--
Molecule: Cc1nnc([C@H]2CCCN2C(=O)N[C@@H](C)c2ccc(Cl)cc2)n1Cc1ccc(Cl)cc1
pIC50: > 7.30
--
Molecule: Cc1cc(C(F)(F)F)cc(C)c1NC(=O)N1CCC[C@@H]1c1nncn1Cc1ccc(Cl)cc1
pIC50: > 7.30
--
Molecule: Cc1nnc([C@H]2CCCN2C(=O)NC(C)C)n1Cc1ccc(Cl)cc1
pIC50: 5.30 to 6.30
--
Molecule: Cc1nnc([C@H]2CCCN2C(=O)Nc2c(F)cc(Cl)cc2F)n1Cc1ccc(Cl)cc1
pIC50: > 7.30
